# Test system: KB-3-1
# TEST PROTOCOL: Cytotoxic Profiling of Annotated Libraries Using Quantitative High-Throughput Screening (AID 1296008); further: on the % scale 0 is the no-effect control and ±100 the full control effect; nearly all actives have a fitted effect of over 60% in size
# CONDITION: Five cell lines viability, CellTiter-Glo ATP luminescence, 48-72 h; hits give low values
Results filed as inconclusive are left out.
Listed below: max response values for each entry.
Kindly answer with a numeric value in %, unit omitted.

Consider the following illustrative entries.
compound="CCC(=O)O[C@H]1C(C)(C)[C@H]([C@@H](O)C(=O)OC)[C@]2(C)C(=O)[C@@]1(O)[C@H]1O[C@]13C1CC(=O)O[C@@H](c4ccoc4)[C@]1(C)CCC32 (some centres undefined)" target_system=KB-3-1 recorded_metric="max response" measured=-4.09
compound=CO[C@H]1/C=C\O[C@@]2(C)Oc3c(C)c(O)c4c(O)c(c5c(nc6cc(C)ccn65)c4c3C2=O)NC(=O)/C(C)=C\C=C/[C@H](C)[C@H](O)[C@@H](C)[C@@H](O)[C@@H](C)[C@H](OC(C)=O)[C@@H]1C target_system=KB-3-1 recorded_metric="max response" measured=9.37
compound=C=C1C[C@]23C[C@H]1CC[C@H]2[C@]1(C)CCC[C@@](C)(C(=O)O)[C@H]1[C@@H]3C(=O)O target_system=KB-3-1 recorded_metric="max response" measured=0.882

Query compound follows.
Enquiry: Recorded max response of C[C@@H]1O[C@@H](O[C@H]2[C@H](OC(=O)[C@]34CCC(C)(C)C[C@H]3C3=CCC5[C@@]6(C)C[C@H](O)[C@H](O[C@@H]7O[C@H](CO)[C@@H](O[C@H]8OC[C@](O)(CO)[C@H]8O)[C@H](O)[C@H]7O)[C@@](C)(CO)C6[C@H](O)C[C@@]5(C)[C@]3(C)C[C@H]4O)OC[C@H](O)[C@@H]2O)[C@H](O)[C@H](O)[C@H]1O[C@@H]1OC[C@@H](O)[C@H](O[C@@H]2OC[C@](O)(CO)[C@H]2O)[C@H]1O (some centres undefined) , please.
Return: 8.08
